Reference source for all entries: paper PMC6629088

biological target: UniProt:P26358
attribute measured: pKi
Scale explanation: pKi corresponds to minus log10 of a concentration expressed in moles per litre.

Problem: What value of pKi has been reported for the following molecule? COc1cc(C(=O)Nc2ccc3c(c2)C(=O)c2ccccc2C3=O)cc(OC)c1OC
Result: 4.89

---

molecular target: DNA methyltransferase 1 (RFTS(-) DNMT1) (Homo sapiens, UniProt P26358)
Sequence (P26358 621-1616): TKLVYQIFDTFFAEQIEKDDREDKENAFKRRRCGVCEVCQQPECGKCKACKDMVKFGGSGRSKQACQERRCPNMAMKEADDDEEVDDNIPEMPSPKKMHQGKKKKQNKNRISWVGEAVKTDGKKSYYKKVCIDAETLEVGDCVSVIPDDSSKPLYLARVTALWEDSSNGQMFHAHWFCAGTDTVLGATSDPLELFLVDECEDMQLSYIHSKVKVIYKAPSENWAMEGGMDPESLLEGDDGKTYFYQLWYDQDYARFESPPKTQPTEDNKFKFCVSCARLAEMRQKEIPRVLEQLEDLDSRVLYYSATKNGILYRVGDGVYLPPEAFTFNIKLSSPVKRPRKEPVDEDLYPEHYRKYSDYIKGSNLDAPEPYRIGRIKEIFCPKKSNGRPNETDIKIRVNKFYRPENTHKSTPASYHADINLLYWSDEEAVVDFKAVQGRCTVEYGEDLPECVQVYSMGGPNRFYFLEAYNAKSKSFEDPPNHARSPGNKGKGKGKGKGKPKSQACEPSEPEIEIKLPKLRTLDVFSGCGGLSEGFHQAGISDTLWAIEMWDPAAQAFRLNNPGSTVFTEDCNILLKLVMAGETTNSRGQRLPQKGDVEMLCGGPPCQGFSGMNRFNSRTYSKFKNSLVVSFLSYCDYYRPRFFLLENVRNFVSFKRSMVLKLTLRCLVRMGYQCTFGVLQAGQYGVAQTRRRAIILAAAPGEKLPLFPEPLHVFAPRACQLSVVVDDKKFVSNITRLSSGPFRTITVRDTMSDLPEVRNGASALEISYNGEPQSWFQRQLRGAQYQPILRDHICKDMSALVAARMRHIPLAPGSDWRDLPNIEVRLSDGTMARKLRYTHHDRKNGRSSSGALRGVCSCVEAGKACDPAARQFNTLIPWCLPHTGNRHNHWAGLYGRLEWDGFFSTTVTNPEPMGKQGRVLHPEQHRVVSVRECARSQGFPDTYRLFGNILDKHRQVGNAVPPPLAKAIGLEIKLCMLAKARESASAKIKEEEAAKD
attribute measured: pIC50
Scale explanation: pIC50 corresponds to minus log10 of a concentration expressed in moles per litre.

Problem: What value of pIC50 has been reported for the following compound? Cc1ccc(NC(=O)c2ccc3c(c2O)C(=O)c2ccccc2C3=O)cc1 [A11]
Result: 4.23
